Origin of measurements: ChEMBL document CHEMBL5291721

Measured AC50 (D(3) dopamine receptor (Homo sapiens))
QUANTITY KIND: AC50

COMPOUND: O=[N+]([O-])c1cn2c(n1)OC[C@@H](OCc1ccc(OC(F)(F)F)cc1)C2 [PRETOMANID]
QUANTITY KIND: AC50
READING: > 10 µM

COMPOUND: C[C@]12CCC(=O)C=C1CC[C@@H]1[C@@H]2[C@@H](O)C[C@@]2(C)[C@H]1CC[C@]2(O)C(=O)CO [HYDROCORTISONE]
QUANTITY KIND: AC50
READING: > 10 µM

COMPOUND: CN1[C@@H]2CC[C@H]1C[C@@H](OC(c1ccccc1)c1ccccc1)C2 [BENZTROPINE]
QUANTITY KIND: AC50
READING: 2.83 µM

COMPOUND: COc1cccc(C2(O)CCCCC2CN(C)C)c1 (stereo not given) [TRAMADOL]
QUANTITY KIND: AC50
READING: > 10 µM

COMPOUND: Clc1ccc(C(c2ccccc2Cl)C(Cl)Cl)cc1 (stereo not given) [MITOTANE]
QUANTITY KIND: AC50
READING: > 30 µM
